# Tested on: MRCKA
# condition: concentration: 1 μM, replicates: in singlicate; n = 1
measurement type: %Inh (%)
Number only, in %; omit the unit.

{"columns": ["molecule", "subject of test", "experimental result"],
 "data": [
  ["Cl.Cn1ccc(-c2cccc(Nc3ccnc4cc(-c5nccs5)ccc34)c2)n1", "MRCKA", 37],
  ["CNc1nccc(-c2c(-c3ccc(F)cc3)ncn2C2CCN(C)CC2)n1", "MRCKA", 0],
  ["c1ccc(-c2ccc3c(-c4ccnc(Nc5ccc6c(c5)OCCO6)n4)cnn3n2)cc1", "MRCKA", 11],
  ["CC(=O)Nc1n[nH]c2ncc(-c3ccccc3)cc12", "MRCKA", 0],
  ["CCc1nc(-c2cccc(C)c2)c(-c2ccnc(NC(=O)c3ccccc3)c2)s1", "MRCKA", 0]
]}

Below: the item to evaluate.
The molecule identified as Cc1ccc(C)c(NC(=O)NCCNc2ccnc(Nc3ccc(F)cc3)n2)c1 registered its %Inh at 12

----------
In this section, each of the molecules is paired with its reported Kd.
# Tested on: PDGFRA;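 further: kd values determined as follow-up on hits from a single-replicate KINOMEscan panel screen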

{"columns": ["molecular string", "subject of test", "Kd"],
 "data": [
  ["Cc1ccc(NC(=O)c2cccc(C#N)c2)cc1-c1ccc(C(=O)Nc2ccncc2)cc1", "PDGFRA", "170 nM"]
]}

The record that follows has no Kd shown yet.
So, Cn1ccc2ncnc(Oc3ccc(NC(=O)Nc4cccnc4)c(Cl)c3)c21 ? Its Kd was 110 nM

----------
Recorded measurements of %Inh, one per entry
# Test system: RET
# condition: concentration: 1 μM, replicates: in singlicate; n = 1
Provide only the numeric value, understood in %.

Previously resolved entries follow.
{"columns": ["compound", "%Inh (%)"],
 "data": [
  ["COC(=O)c1cccc(NC(=O)NCCNc2ccnc(Nc3ccc(F)cc3)n2)c1 [GSK1379883]", 0],
  ["Nc1nc(-c2ccc3c(N)n[nH]c3c2)cc(N2CCCCC2)n1 [GSK2228768]", 1]
]}

Value of %Inh reported for the compound Cl.O=S(=O)(c1cccc(F)c1)c1ccc(Nc2ncnc3cc(Br)sc23)cc1Cl [GSK306886] is 97.9

So for Cc1ccc(NC(=O)c2cccc(C#N)c2)cc1-c1ccc(C(=O)Nc2ccncc2)cc1 [GSK1398463] , the logged %Inh turned out to be 7

# compound COC(=O)c1c(-c2ccccc2)c2cc(Cl)ccc2c(=O)n1Cc1ccc(S(C)(=O)=O)cc1 ; its %Inh = 2

Value of measured %Inh for the entry Cc1ccc(C)c(NC(=O)NCCNc2ccnc(Nc3ccc(F)cc3)n2)c1 [GSK1379878] : 3

Value of measured %Inh for the entry CN1c2ccc(-c3ccc(C(=O)NCCO)cc3)cc2-c2[nH]ncc2S1(=O)=O : 13

Form: compound = Fc1cccc(COc2ccc(Nc3ncnc4nn5ccccc5c34)cc2Cl)c1 [GW689066] ; %Inh = 0

Please fill in: %Inh reported for CNc1nccc(-c2c(-c3ccc(F)cc3)ncn2CCCN2CCOCC2)n1 [SB-222516] = 7

Value of measured %Inh for the entry COc1cc2ncnc(Nc3ccc(OCc4ccccc4Br)c(Cl)c3)c2cc1OC.Cl [GI261590] : 14

%Inh for Clc1cccc(-c2nc(Nc3ccncc3)c3ccccc3n2)c1 [GW873004] is 0

Reference for the values: paper PMC5540273
